Biological target: rat EP4 receptor (Rattus norvegicus, UniProt P43114)
Sequence (P43114 whole entry): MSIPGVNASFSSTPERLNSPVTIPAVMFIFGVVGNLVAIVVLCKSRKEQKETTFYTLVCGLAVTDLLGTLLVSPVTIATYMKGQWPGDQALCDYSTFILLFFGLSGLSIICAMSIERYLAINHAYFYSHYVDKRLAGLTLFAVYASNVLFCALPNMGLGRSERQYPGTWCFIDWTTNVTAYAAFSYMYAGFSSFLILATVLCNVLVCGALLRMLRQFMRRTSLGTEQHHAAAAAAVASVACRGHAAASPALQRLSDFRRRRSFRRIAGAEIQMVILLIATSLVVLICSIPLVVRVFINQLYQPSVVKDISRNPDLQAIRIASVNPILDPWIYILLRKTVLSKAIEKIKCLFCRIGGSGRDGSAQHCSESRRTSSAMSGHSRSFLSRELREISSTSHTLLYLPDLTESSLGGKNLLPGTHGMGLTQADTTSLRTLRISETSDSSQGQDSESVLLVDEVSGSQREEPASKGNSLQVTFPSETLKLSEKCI
Test: Whole cell 3H-PGE2 binding with Scatchard analysis in 293S transfectants
Settings: cell line selected for compound screening
Experimental: Clonal cell lines expressing the maximal number of receptors are chosen following a whole cell ^3H-PGE2 binding assay using unlabeled PGE2 as a competitor. […] Constitutive expression of the receptor in parental 293-S cells is negligible. A stable cell line containing the rat EP4 receptor is grown in Dulbecco's Mosified Eagle Medium/F12 (DMEM/F12) containing 10% fetal bovine serum and G418 (500 μg/ml) to 80% confluency.
quantity.measured: Kd (nM)

compound	quantity.measured	numeric.readout
CCCCC[C@H](O)/C=C/[C@H]1[C@H](O)CC(=O)[C@@H]1C/C=C\CCCC(=O)O [PGE2, Prostaglandin E2]	Kd	2.9
